TESTED_ON: transporter glyt2 (Mus musculus, UniProt Q761V0)
Sequence (Q761V0 whole entry): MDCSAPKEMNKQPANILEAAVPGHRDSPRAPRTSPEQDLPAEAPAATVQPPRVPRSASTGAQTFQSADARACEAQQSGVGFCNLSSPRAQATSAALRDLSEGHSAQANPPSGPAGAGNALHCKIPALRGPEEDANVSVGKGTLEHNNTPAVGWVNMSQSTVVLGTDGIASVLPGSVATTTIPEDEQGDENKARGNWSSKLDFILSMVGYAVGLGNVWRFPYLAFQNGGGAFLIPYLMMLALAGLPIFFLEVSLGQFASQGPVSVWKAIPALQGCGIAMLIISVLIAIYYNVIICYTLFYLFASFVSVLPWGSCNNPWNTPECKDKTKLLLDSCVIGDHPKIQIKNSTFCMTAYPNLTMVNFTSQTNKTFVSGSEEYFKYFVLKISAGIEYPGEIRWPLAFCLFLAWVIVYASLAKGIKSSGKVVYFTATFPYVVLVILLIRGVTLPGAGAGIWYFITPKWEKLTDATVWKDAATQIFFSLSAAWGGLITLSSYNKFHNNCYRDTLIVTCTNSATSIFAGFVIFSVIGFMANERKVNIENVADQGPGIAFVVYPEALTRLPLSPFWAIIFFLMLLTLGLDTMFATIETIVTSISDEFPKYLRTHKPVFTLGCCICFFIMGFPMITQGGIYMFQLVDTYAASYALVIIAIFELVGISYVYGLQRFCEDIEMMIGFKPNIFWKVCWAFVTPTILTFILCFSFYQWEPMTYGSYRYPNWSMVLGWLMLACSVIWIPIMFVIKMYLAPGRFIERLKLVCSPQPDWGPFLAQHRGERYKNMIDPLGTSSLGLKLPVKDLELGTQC
ASSAY_NOTES: Glycine transportation ([14C]glycine uptake) in mouse spinal cord homogenate
PARTICULARS: 10 μM [14C]glycine, 10 minutes at 25° C., read-out: IC50, concentration capable of reducing by 50% the specific uptake of glycine
Source text: Study of the Glycine Transportation in Mouse Spinal Cord Homogenate The uptake of [^14C]glycine by the transporter glyt2 is studied in mouse spinal cord homogenate by measuring the radioactivity incorporated in the presence or absence of test compound. After euthanizing the animals (male OF1 Iffa Credo mice weighing 20 to 25 g on the day of the experiment), the spinal cord of each animal is rapidly removed, weighed and stored on ice. […]
pIC50: −log10 of the molar value.
PROPERTY_MEASURED: pIC50

[P] CC1CCCC(C(NC(=O)c2cccc(C(F)(F)F)c2Cl)c2ccccc2)N1C (centres unmarked)
[Q] CC1CCN(C)C(C(NC(=O)c2cccc(C(F)(F)F)c2Cl)c2ccccc2)C1 (centres unmarked)
Given the two records P and Q , choose the one whose pIC50 value is lower. Please respond with the label that marks your chosen entry.
P

---

TESTED_ON: native human transporter glyt1 (Homo sapiens, UniProt P48067)
Construct: SK-N-MC cells (human neuroepithelial cells) expressing the native human transporter glyt1; endogenous in cells; host or cells: SK-N-MC cells (human neuroepithelial cells)
Sequence (P48067 whole entry): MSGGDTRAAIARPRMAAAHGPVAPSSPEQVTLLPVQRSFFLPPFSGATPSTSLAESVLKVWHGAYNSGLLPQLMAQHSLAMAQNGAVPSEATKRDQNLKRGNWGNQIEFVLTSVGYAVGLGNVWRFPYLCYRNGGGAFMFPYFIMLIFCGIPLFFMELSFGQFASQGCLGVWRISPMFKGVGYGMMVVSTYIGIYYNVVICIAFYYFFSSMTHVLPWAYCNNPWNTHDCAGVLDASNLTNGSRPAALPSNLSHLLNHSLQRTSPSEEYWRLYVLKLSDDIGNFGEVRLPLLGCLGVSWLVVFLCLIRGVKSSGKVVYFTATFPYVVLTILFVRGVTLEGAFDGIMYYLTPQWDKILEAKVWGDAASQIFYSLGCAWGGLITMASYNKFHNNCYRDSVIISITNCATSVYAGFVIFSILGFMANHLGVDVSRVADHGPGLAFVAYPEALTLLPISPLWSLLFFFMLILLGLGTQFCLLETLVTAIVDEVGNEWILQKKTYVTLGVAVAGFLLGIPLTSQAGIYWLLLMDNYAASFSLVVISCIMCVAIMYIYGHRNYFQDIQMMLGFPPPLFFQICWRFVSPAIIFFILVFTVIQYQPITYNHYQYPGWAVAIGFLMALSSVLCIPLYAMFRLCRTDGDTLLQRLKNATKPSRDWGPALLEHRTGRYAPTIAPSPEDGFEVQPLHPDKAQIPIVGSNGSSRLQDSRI
ASSAY_NOTES: Glycine transportation ([14C]glycine uptake) in SK-N-MC cells expressing the native human transporter glyt1
Assay type: cell-based
PARTICULARS: 10 μM [14C]glycine, 10 minutes at 37° C., read-out: IC50, concentration of compound that reduces by 50% the specific uptake of glycine
pIC50: −log10 of the molar value.
PROPERTY_MEASURED: pIC50

Here is how some compounds turned out for pIC50.
1) CC1CCC(C(NC(=O)c2cccc(C(F)(F)F)c2Cl)c2ccc(F)cc2)N(C)C1 (stereo not shown) [Compound 5]    7.00
2) CC1CCN(C)C(C(NC(=O)c2cccc(C(F)(F)F)c2Cl)c2ccccc2)C1 (stereo not shown) [Compound 9]    7.05

[I] CN1CCCCC1(C)C(NC(=O)c1cccc(C(F)(F)F)c1Cl)c1ccccc1 (stereo not shown) [Compound 10]
[II] CC1CCCC(C(NC(=O)c2cccc(C(F)(F)F)c2Cl)c2ccccc2)N1C (stereo not shown) [Compound 1]
Between I and II , which one shows the smaller pIC50 number? I would appreciate it if you answered with the label of your choice.
II
(II: 6.29, I: 8.10)
